Origin of measurements: patent US12570648B2

target: His-His-(EK)-hsBCLXL(2-197)[N197C] (Homo sapiens (Human), UniProt Q07817, N197C); assay: Fluorescence quenching assay; conditions: 1 nM Cy5-labelled protein, 400 nM PUMA peptide, 2 hours at 23° C.; KI determined from IC50
Sequence (Q07817 2-197 N197C): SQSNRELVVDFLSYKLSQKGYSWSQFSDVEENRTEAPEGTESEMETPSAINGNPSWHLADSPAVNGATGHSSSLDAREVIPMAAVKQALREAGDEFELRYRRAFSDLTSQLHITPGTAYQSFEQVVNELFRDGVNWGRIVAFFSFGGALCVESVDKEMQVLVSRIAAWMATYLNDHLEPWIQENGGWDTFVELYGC
pKi: −log10 of the molar value.
Measurement label: pKi

// known answers, use as guide
1) Cc1c(Nc2nc3ccccc3s2)nnc2c1CCCN2c1nc(C(=O)O)c(CCCOc2ccc(CCCN3CCN(C)CC3)cc2F)s1    11.42
2) Cc1c(Nc2nc3ccccc3s2)nnc2c1CCCN2c1nc(C(=O)O)c(CCCOc2ccc(CCCCN(C)C)cc2F)s1    11.47
3) Cc1c(Nc2nc3ccccc3s2)nnc2c1CCCN2c1nc(C(=O)O)c(CCCOc2ccc(C34CC(CN(C)C)(C3)C4)cc2F)s1    11.66
4) CNCCc1ccc(OCCCc2sc(N3CCCc4c3nnc(Nc3nc5ccccc5s3)c4C)nc2C(=O)O)c(F)c1    11.28

(A) CNCC#Cc1ccc(OCCCc2sc(N3CCc4c3nnc(Nc3nc5ccccc5s3)c4C)nc2C(=O)O)c(F)c1
(B) Cc1c(Nc2nc3ccccc3s2)nnc2c1CCCN2c1nc(C(=O)O)c(CCCOc2ccc(C#CC(C)N3CCCC3)cc2F)s1 (stereo not shown)
(C) Cc1c(Nc2nc3ccccc3s2)nnc2c1CCCN2c1nc(C(=O)O)c(CCCOc2ccc(C#CC(C)(C)N3CCCC3)cc2F)s1
# rank by pKi, ascending (min first) Your reply should list the labels following the order given in the request. C, A, B
(C: 10.82, A: 11.11, B: 11.51)
